PROTOCOL: NFAT Signaling Pathway (AID 444);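 further: carbachol stimulus at about its EC50 of 1 µM final; on the % scale 0 is the no-effect control and ±100 the full control effect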
REPORTED CONDITIONS: Jurkat NFAT-bla M1, carbachol, beta-lactamase ratio, 5 h; at 17.2 µM (top of the series) unless noted
Results filed as inconclusive are left out. Starred links: 1 amine or outer side, 2 acyl side, 3 side chain; linkers in the order of their positions; H or OH if unused. Positions of bridges follow the written chain, without caps; N, C: chain ends. Non-standard residues stand in square brackets, D forms with d. Residues, ends and D or L forms follow the SMILES beside them. *: point of attachment. X1 = NC1=N[C@@H](O)C[C@@H]([C@@H](N[*:1])C(=O)[*:2])N1; ΔAla(Z-3-ureido) = NC(=O)N/C=C(\N)C(=O)O; β3hOrn = NCCC[C@H](N)CC(=O)*; Dap = NC[C@H](N)C(=O)O
activity change, negative = inhibition listing for selected compounds.
Give your result in % as a bare value.

// known answers, use as guide
# COMPOUND, activity change, negative = inhibition, %
rows = [
    ("CC(=O)c1cc2ccccc2oc1=O", -3.16),
    ("CCCCC[C@H](O)/C=C\\[C@H]1[C@H](C/C=C\\CCCC(=O)O)[C@@H](O)C[C@H]1O (tested in a mixture with another compound)", 11.1),
    ("COc1ccccc1OC[C@H](O)CO", -3.75),
    ("CN[C@]1(C)[C@H]2CC[C@@H](C2)C1(C)C", -19.7),
    ("NCCC[C@H](N)CC(=O)N[C@H]1CNC(=O)[C@@H]([C@@H]2C[C@H](O)N=C(N)N2)NC(=O)/C(=C/NC(N)=O)NC(=O)[C@@H](CO)NC(=O)[C@@H](CO)NC1=O (β3hOrn-[Dap][dS][dS][ΔAla(Z-3-ureido)][X1]; lactam 1-C)", -11.1),
]

Next item in the queue.
Ask: Consider the compound C[C@H](CCC(=O)O)[C@H]1CC[C@@H]2[C@H]3[C@@H](CC[C@@]21C)[C@]1(C)CC[C@H](O)C[C@@H]1C[C@@H]3O and give its recorded activity change, negative = inhibition.
Result: -6.74

----------
EXPERIMENTAL SYSTEM: Rap guanine nucleotide exchange factor 3 (Homo sapiens)
PROTOCOL: Counterscreen qHTS for agonist of cAMP-regulated guanine nucleotide exchange factor 3 (EPAC1) (AID 1645889); further: nearly all actives have a fitted effect of over 40% in size; on activation: % of control where 0% means no effect
REPORTED CONDITIONS: EPAC1 Rap1B-BODIPY-GDP exchange, fluorescence; series mostly up to 154 µM
Inconclusive results are not listed. The source made the active and inactive calls. The call rests on the fitted dose curve; in most records, active means well fitted activation curve with a large enough effect; inconclusive means small, poorly fitted or top-dose-only effect, or another doubt; inactive means no such curve, though single readings can be large or run the other way.
PROPERTY NAME: activation

Example compounds with recorded activation:
# COMPOUND, activation
rows = [
    ("CC(C)(C)c1ccc(CC(=O)N2CCC2(C)C(=O)NS(=O)(=O)c2ccccc2)cc1 (stereo not given)", "19.6% [at 30.8 µM] (inactive)"),
    ("COc1ccccc1OCC(=O)Nc1cccc(S(=O)(=O)NC2=NCCCCC2)c1", "inactive"),
    ("Cc1ccc(NC(=O)COC(=O)Cn2c(C)csc2=O)c([N+](=O)[O-])c1", "inactive"),
    ("CCOC(=O)C1CCN(C(=O)c2cccc(S(=O)(=O)N(CC)c3ccccc3)c2)CC1", "inactive"),
]

Please turn your attention to the following entry.
Ask: For Cc1cn(S(=O)(=O)c2ccccc2[N+](=O)[O-])cn1 , write its activation.
Result: -4.19% [at 30.8 µM] (inactive)

----------
EXPERIMENTAL SYSTEM: Rap guanine nucleotide exchange factor 3 (Homo sapiens)
PROTOCOL: Counterscreen qHTS for agonist of cAMP-regulated guanine nucleotide exchange factor 3 (EPAC1) (AID 1645889); further: nearly all actives have a fitted effect of over 40% in size; further: potency means the concentration at half of the fitted maximal effect; on activation: % of control where 0% means no effect
REPORTED CONDITIONS: EPAC1 Rap1B-BODIPY-GDP exchange, fluorescence; series mostly up to 154 µM
Results filed as inconclusive are left out. Active and inactive are the calls of the source. Calls come from the whole dose curve; as a rule, active = well fitted activation curve with a large enough effect; inconclusive = small, poorly fitted or top-dose-only effect, or another doubt; inactive = no such curve, though single readings can be large or run the other way.
PROPERTY NAME: Potency

Ask: Complete the entry with Potency for O=C1Nc2c(Cl)cc(Cl)cc2C1=O
Result: 31.6 µM (active)

----------
Test system: CP262
PROTOCOL: qHTS profiling for inhibitors of Plasmodium falciparum proliferation (AID 504749); further: nearly all actives have a fitted effect of over 60% in size; further: potency means the concentration at half of the fitted maximal effect
REPORTED CONDITIONS: P. falciparum in erythrocytes, SYBR Green DNA, 72 h; series mostly up to 12.8 µM
Records with an inconclusive call do not appear. Active and inactive are the calls of the source. The call rests on the fitted dose curve; in most records, active means well fitted inhibition curve with a large enough effect; inconclusive means small, poorly fitted or top-dose-only effect; inactive means flat fitted curve, though single readings scatter.
PROPERTY NAME: Potency

// solved cases for Potency follow
# MOLECULE, Potency
data = [
    ("O=C(Nc1ccccc1)OC[C@H](CN1CCCCC1)OC(=O)Nc1ccccc1", "inactive"),
    ("CCN(CC)[C@@H](C)CN1c2ccccc2Sc2ccccc21", "inactive"),
    ("CCCCCCCCCc1ccc(OCCOCCOCCOCCOCCOCCOCCOCCOCCO)cc1", "inactive"),
    ("C[C@H](N[C@@H](C)COc1ccccc1)[C@H](O)c1ccc(O)cc1", "inactive"),
    ("CCC(CCC(C)C1CCC2C3CC=C4CC(O)CC[C@@]4(C)C3CC[C@@]12C)C(C)C (some centres undefined)", "inactive"),
]

Ask: Give reported Potency value for NS(=O)(=O)c1cc2c(cc1Cl)N[C@@H](C(Cl)Cl)NS2(=O)=O
Result: inactive

Ask: Indicate the recorded Potency value for this molecule: CNC1CC(N)[C@H](O)[C@@H](O[C@@H]2OC(CO)C3OC4(OC(C(N)CO)C(O)C(O)C4O)O[C@@H]3[C@H]2O)C1O (some centres undefined)
Result: inactive

Ask: For the molecule COc1ccc(CC(N)C(=O)NC2C(CO)OC(n3cnc4c(N(C)C)ncnc43)C2O)cc1 (centres undefined) , report Potency.
Result: 0.675 µM (active)

Ask: Answer with the recorded Potency of Nc1nc(NC2CC2)c2ncn([C@H]3C=C[C@@H](CO)C3)c2n1 only.
Result: inactive

Ask: State its Potency for this molecule: COc1cc(C2c3cc4c(cc3C(O[C@@H]3OC5COC(c6cccs6)OC5C(O)C3O)C3COC(=O)C23)OCO4)cc(OC)c1O (some centres undefined)
Result: 8.49 µM (active)

Ask: Return reported Potency. Input molecule: C[C@H]1CC[C@]2(OC1)O[C@@H]1C[C@@H]3[C@@H]4CC[C@H]5C[C@@H](O)CC[C@]5(C)[C@@H]4CC(=O)[C@@]3(C)[C@H]1[C@@H]2C
Result: inactive

Ask: # return recorded Potency for entry C[C@]12CCC(=O)C=C1CCC1C2C(=O)C[C@]2(C)C1CC[C@]2(O)C(=O)CO (some centres undefined)
Result: inactive

----------
Tested on: 3D7
PROTOCOL: qHTS profiling for inhibitors of Plasmodium falciparum proliferation (AID 504749); further: nearly all actives have a fitted effect of over 60% in size; further: potency means the concentration at half of the fitted maximal effect
REPORTED CONDITIONS: P. falciparum in erythrocytes, SYBR Green DNA, 72 h; series mostly up to 12.8 µM
Results filed as inconclusive are left out. Active and inactive are the calls of the source. The call rests on the fitted dose curve; in most records, active means well fitted inhibition curve with a large enough effect; inconclusive means small, poorly fitted or top-dose-only effect; inactive means flat fitted curve, though single readings scatter.
PROPERTY NAME: Potency

Solved cases (5 shown):
# MOLECULE, Potency
rows = [
    ("NCc1ccccc1CC(=O)N[C@@H]1C(=O)N2C(C(=O)O)=C(CSc3nnnn3CC(=O)O)CS[C@@H]12", "inactive"),
    ("C[C@@H](C(=O)O)c1ccc(C(=O)c2ccccc2)s1", "inactive"),
    ("O[C@@](CCN1CCCC1)(c1ccccc1)C1CCCCC1", "inactive"),
    ("C/C1=C2N=C(/C=C3N=C(/C(C)=C4\\[N-]C(C)(C5N=C1C(C)(CCC(=O)NCC(C)OP(=O)([O-])O[C@H]1C(O)C(n6cnc7cc(C)c(C)cc76)O[C@@H]1CO)C5CC(N)=O)C(C)(CC(N)=O)C4CCC(N)=O)C(C)(CC(N)=O)C\\3CCC(N)=O)C(C)(C)C/2CCC(N)=O.[CH2-]C1OC(n2cnc3c(N)ncnc32)C(O)C1O.[Co] (stereo partly specified)", "inactive"),
    ("CC(=O)C[C@H](c1ccc([N+](=O)[O-])cc1)c1c(O)c2ccccc2oc1=O", "inactive"),
]

Ask: Give the measured Potency for COC1C=CO[C@@]2(C)Oc3c(C)c(O)c4c(O)c(c(C=NN5CCN(C)CC5)c(O)c4c3C2=O)NC(=O)/C(C)=C\C=CC(C)C(O)[C@@H](C)C(O)C(C)[C@H](OC(C)=O)C1C (stereo partly specified)
Result: 2000 nM (active)

Ask: Check the records and state Potency for COc1ccc(OC)c([C@H](O)CNC(=O)CN)c1
Result: inactive

Ask: Entry CC=C(/C(=C/C)c1ccc(O)cc1)c1ccc(O)cc1 needs its Potency filled in; supply it.
Result: inactive

Ask: Respond only with Potency recorded for C=CCOc1ccccc1OC[C@H](O)CNC(C)C
Result: inactive

Ask: Provide only the value of recorded Potency for CC(C)NC[C@H]1CCc2cc(CO)c([N+](=O)[O-])cc2N1
Result: inactive

Ask: Report measured Potency; entry is CC1(C)O[C@H]2C[C@@H]3[C@H]4CCC5=CC(=O)CC[C@@]5(C)[C@]4(F)[C@@H](O)C[C@@]3(C)[C@@]2(C(=O)CCl)O1
Result: 3980 nM (active)

Ask: Give a short answer stating reported Potency for Nc1nc(NC2CC2)c2ncn([C@H]3C=C[C@@H](CO)C3)c2n1 .
Result: inactive

Ask: Item COCC(=O)Nc1c(I)c(C(=O)NC[C@@H](O)CO)c(I)c(C(=O)N(C)C[C@@H](O)CO)c1I : provide Potency
Result: inactive

Sourced from PubChem BioAssay (NCATS)
